Recorded values, source patent US9394282B2.

- system: JAK1 (Homo sapiens (Human))
- Sequence (P23458 875-1153): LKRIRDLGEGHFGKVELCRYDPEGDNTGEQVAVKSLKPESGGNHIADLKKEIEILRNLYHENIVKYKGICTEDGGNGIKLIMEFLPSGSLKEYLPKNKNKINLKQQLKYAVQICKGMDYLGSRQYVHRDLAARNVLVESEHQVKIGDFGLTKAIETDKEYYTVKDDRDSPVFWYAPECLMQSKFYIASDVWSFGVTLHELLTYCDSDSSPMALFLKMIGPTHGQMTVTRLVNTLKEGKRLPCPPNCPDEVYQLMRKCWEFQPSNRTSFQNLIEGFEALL
- protocol_notes: Jak biochemical HTRF assay, JAK1
- assay_context: recombinant purified GST-tagged catalytic domain; HTRF format; [ATP] 31.8 μM
pIC50: −log10 of the molar value.
Given measured pIC50, output T if it is greater than or equal to 7 and F if not.

The following compounds have reported results that may help.
> print(dat)
                                   compound  assigned.label
1  CC(C)(COC(=O)N1CC[C@H](n2cc(C(N)=O)c(Nc3ccc(F)cc3)n2)[C@H](C#N)C1)n1cccn1 (racemic) [Example 5-53]               F
2  CC(OC(=O)N1CC[C@H](n2cc(C(N)=O)c(Nc3ccc(F)cc3)n2)[C@H](C#N)C1)C(F)(F)F (mixture of isomers) [Example 5-43]               F
3  COCCOC(=O)N1CC[C@@H](n2cc(C(N)=O)c(Nc3ccc(F)cc3)n2)[C@H](C#N)C1 (racemic) [Example 5-29]               T
4  CC(OC(=O)N1CC[C@H](n2cc(C(N)=O)c(Nc3ccc(F)cc3)n2)[C@H](C#N)C1)C1CC1 (mixture of isomers) [Example 5-68]               F
5  CC(OC(=O)N1CC[C@@H](n2cc(C(N)=O)c(Nc3ccc(F)cc3)n2)[C@H](C#N)C1)C(F)(F)F (mixture of isomers) [Example 5-1]               T

Note: attention shifts to another entry.
Is reported pIC50 greater than or equal to 7 here: N#C[C@H]1CS(=O)(=O)CC1n1cc(C(N)=O)c(Nc2ccnc(F)c2)n1 (mixture of isomers) [Example 8-8]
T
